Origin of the recorded values: patent US20250333467A1

# reported Potency (cAMP, transient hRXFP1 in HEK293); entries follow
Biological target: T1, human RXFP1 (human, UniProt Q9HBX9 1-757)
T1 sequence (looked up): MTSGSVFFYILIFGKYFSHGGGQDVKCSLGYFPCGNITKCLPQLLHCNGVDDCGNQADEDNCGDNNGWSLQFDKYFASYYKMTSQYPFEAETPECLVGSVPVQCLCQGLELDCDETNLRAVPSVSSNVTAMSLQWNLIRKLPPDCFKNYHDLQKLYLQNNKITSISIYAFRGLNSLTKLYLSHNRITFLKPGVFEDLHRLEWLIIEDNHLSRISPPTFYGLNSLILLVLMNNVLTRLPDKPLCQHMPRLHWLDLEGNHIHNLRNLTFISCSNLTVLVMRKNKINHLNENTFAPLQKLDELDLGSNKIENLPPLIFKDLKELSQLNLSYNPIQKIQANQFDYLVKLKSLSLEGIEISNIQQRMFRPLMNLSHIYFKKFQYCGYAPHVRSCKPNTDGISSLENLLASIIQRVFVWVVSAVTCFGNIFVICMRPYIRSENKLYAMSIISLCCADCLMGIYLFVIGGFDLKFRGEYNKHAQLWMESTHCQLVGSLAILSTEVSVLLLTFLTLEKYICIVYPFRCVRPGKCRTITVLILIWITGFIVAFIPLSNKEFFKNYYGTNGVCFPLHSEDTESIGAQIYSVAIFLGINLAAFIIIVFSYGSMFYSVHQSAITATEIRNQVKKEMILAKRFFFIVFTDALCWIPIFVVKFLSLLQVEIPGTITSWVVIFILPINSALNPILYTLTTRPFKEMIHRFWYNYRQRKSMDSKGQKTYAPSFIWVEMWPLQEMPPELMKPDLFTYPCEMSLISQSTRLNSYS
Assay: cell-based or functional assay
Express the result in nM but write the number alone.

SEQ ID NO: 327 (Fc fusion) DKTHTCPPCPAPEAAGGPSVFLFPPKPKDTLMISRTPEVTCVVVDVSHEDPEVKFNWYVDGVEVHNAKTKPREEQYNSTYRVVSVLTVLHQDWLNGKEYKCKVSNKALAAPIEKTISKAKGQPREPQVYTLPPSRDELTKNQVSLTCLVKGFYPSDIAVEWESNGQPENNYKTTPPVLDSDGSFFLYSKLTVDKSRWQQGNVFSCSVLHEALHSHYTQKSLSLSPGGGSDSWQEEVIKLCGRELVRAQIAICGKSTGGEGEGGEGEGGSRQLYSALANKCCHVGCTKRSLARFC :: 9.3
SEQ ID NO: 369 (Fc fusion) DKTHTCPPCPAPEAAGGPSVFLFPPKPKDTLMISRTPEVTCVVVDVSHEDPEVKFNWYVDGVEVHNAKTKPREEQYNSTYRVVSVLTVLHQDWLNGKEYKCKVSNKALAAPIEKTISKAKGQPREPQVYTLPPSRDELTKNQVSLTCLVKGFYPSDIAVEWESNGQPENNYKTTPPVLDSDGSFFLYSKLTVDKSRWQQGNVFSCSVLHEALHSHYTQKSLSLSPGKGGSDSWKEEVIKLCGRELVRAQIAICGKSTASDAAGANANAGARQLYSALANKCCHVGCTKRSLAQFC :: 0.5
SEQ ID NO: 87 (Fc fusion) DKTHTCPPCPAPEAAGGPSVFLFPPKPKDTLMISRTPEVTCVVVDVSHEDPEVKFNWYVDGVEVHNAKTKPREEQYNSTYRVVSVLTVLHQDWLNGKEYKCKVSNKALAAPIEKTISKAKGQPREPQVYTLPPSRDELTKNQVSLTCLVKGFYPSDIAVEWESNGQPENNYKTTPPVLDSDGSFFLYSKLTVDKSRWQQGNVFSCSVLHEALHSHYTQKSLSLSPGKGGSDSWQEEVIKLCGRELVRAQIAICGKSTASDAAGAEAEAGARQLYSALANKCCHVGCTKRSLAQFC :: 5.2

Now for another entry.
# Potency (cAMP, transient hRXFP1 in HEK293) (binder: SEQ ID NO: 363 (Fc fusion) DKTHTCPPCPAPEAAGGPSVFLFPPKPKDTLMISRTPEVTCVVVDVSHEDPEVKFNWYVDGVEVHNAKTKPREEQYNSTYRVVSVLTVLHQDWLNGKEYKCKVSNKALAAPIEKTISKAKGQPREPQVYTLPPSRDELTKNQVSLTCLVKGFYPSDIAVEWESNGQPENNYKTTPPVLDSDGSFFLYSKLTVDKSRWQQGNVFSCSVLHEALHSHYTQKSLSLSPGKGGSDSWMEEVIKLCGRELVRAQIAICGKSTGGGEGGGEGGGEGRQLYSALANKCCHVGCTKRSLARFC ) is 2.9
